# measurement.description: Quantitative High-Throughput drug screen in 47 multiple myeloma cell lines against the NCATS MIPE library collection: JJN3_DSMZ cell viability assay (AID 1918966; further: nearly all actives have a fitted effect of over 50% in size)
# details: JJN3 myeloma cells viability, CellTiter-Glo ATP, 48 h; series mostly up to 45.8 µM
Inconclusive results are not listed. Activity calls are given as the source filed them. The call rests on the fitted dose curve; in most records, active means well fitted cell-killing curve with a large enough effect; inconclusive means small, poorly fitted or top-dose-only effect, or effect the other way; inactive means no such curve, though single readings can be large or run the other way.
A correct response names exactly one class from class 1 for active, class 0 for inactive

## Task For this compound, state the assay outcome: CC(=Cc1csc(C)n1)[C@@H]1C[C@H]2O[C@@H]2CCC[C@H](C)[C@@H](O)[C@@H](C)C(=O)C(C)(C)[C@@H](O)CC(=O)O1
## Result class 1

## Task For this compound, state the assay outcome: C[C@@H]1O[C@@H](O[C@@H]2C=C3CC[C@@H]4[C@@H](CC[C@]5(C)[C@H](c6ccc(=O)oc6)CC[C@@]45O)[C@@]3(C)CC2)[C@H](O)[C@H](O)[C@H]1O
## Result class 1

## Task For this compound, state the assay outcome: O=S(=O)(F)Cc1ccccc1
## Result class 0

## Task For this compound, state the assay outcome: C[C@](O)(COc1ccc(C#N)cc1)C(=O)Nc1ccc(C#N)c(C(F)(F)F)c1
## Result class 0

## Task For this compound, state the assay outcome: C1=C2CCCN[C@H]2[C@@H]2C[C@H]1[C@@H]1CCCCN1C2
## Result class 0

Others:
## Task For this compound, state the assay outcome: Cc1ccccc1-n1c(Cn2cnc3c(N)ncnc32)nc2cccc(C)c2c1=O
## Result class 1

## Task For this compound, state the assay outcome: CCOP(=O)(OCC)C(C)NC(=O)N(CCCl)N=O (centres undefined)
## Result class 0

## Task For this compound, state the assay outcome: O=c1[nH]c2ccc(Cl)cc2c(N[C@@H]2CN3CCC2CC3)c1-c1nc2ccccc2[nH]1
## Result class 1

## Task For this compound, state the assay outcome: CN[C@@H]1Cc2cccc3[nH]c(=O)n(c23)C1
## Result class 0

## Task For this compound, state the assay outcome: C=C1C[C@H]2[C@H]3CCC(=O)[C@@]3(C)CC[C@@H]2[C@@]2(C)C=CC(=O)C=C12
## Result class 1

## Task For this compound, state the assay outcome: CC[C@@H](C(N)=O)N1CCCC1=O
## Result class 0

## Task For this compound, state the assay outcome: COc1ccc(N(C(=O)Oc2c(C)cccc2C)c2ccnc(Nc3ccc(N4CCN(C)CC4)cc3)n2)c(OC)c1
## Result class 1

## Task For this compound, state the assay outcome: O=c1cccc2n1CC1CNC[C@H]2C1
## Result class 0

## Task For this compound, state the assay outcome: Cc1c(C(=O)Nc2cccc(C(F)(F)F)c2)cc(-c2ccccc2)n1CCCN1CCOCC1
## Result class 1

---

# measurement.description: Primary qHTS for inhibitors of nuclear receptor binding SET domain protein 2 (NSD2) in an isogenic RCH-ACV NSD2 p.E1099K mutant (9B) (AID 1645876); further: nearly all actives have a fitted effect of over 70% in size
# details: RCH-ACV (leukaemia line) NSD2 E1099K (9B) viability, CellTiter-Glo, 72 h; series mostly up to 44.9 µM
Results filed as inconclusive are left out. Activity calls are given as the source filed them. Calls come from the whole dose curve; as a rule, active = well fitted inhibition curve with a large enough effect; inconclusive = small, poorly fitted or top-dose-only effect; inactive = flat fitted curve, though single readings scatter.
A correct response names exactly one class from True = active, False = inactive

## Task For this molecule, state the assay outcome: COc1nn(CSP(=S)(OC)OC)c(=O)s1
## Result True

## Task For this molecule, state the assay outcome: CN[C@@H](C)[C@H](O)c1ccccc1
## Result False

Others:
## Task For this molecule, state the assay outcome: Fc1cc(Br)ccc1CBr
## Result False

## Task For this molecule, state the assay outcome: O=S(=O)(CC1CS1)c1ccc(Oc2ccccc2)cc1 (centres undefined)
## Result True

---

# measurement.description: qHTS of pediatric cancer cell lines to identify multiple opportunities for drug repurposing: Primary screen for OHS-50 cells (AID 1347103); further: nearly all actives have a fitted effect of over 40% in size; further: potency means the concentration at half of the fitted maximal effect
# details: OHS-50 osteosarcoma viability, CellTiter-Glo luminescence, 48 h; series mostly up to 57.3 µM
Inconclusive results are not listed. Activity calls are given as the source filed them. The call rests on the fitted dose curve; in most records, active means well fitted cell-killing curve with a large enough effect; inconclusive means small, poorly fitted or top-dose-only effect; inactive means no such curve, though single readings can be large or run the other way.
quantity: Potency

## Task For the compound c1ccc(CCCN2CCN(CCOC(c3ccccc3)c3ccccc3)CC2)cc1 , what Potency is on record?
## Result 21.7 µM (active)

## Task For the compound Oc1ccc2c3c1O[C@H]1c4[nH]c5c(c4C[C@@]4(O)[C@@H](C2)N(CC2CC2)CC[C@]314)C[C@@]1(O)[C@H]2Cc3ccc(O)c4c3[C@@]1(CCN2CC1CC1)[C@H]5O4 , what Potency is on record?
## Result inactive

## Task For the compound O=C(O)COc1nc(Cl)c(Cl)cc1Cl , what Potency is on record?
## Result inactive

## Task For the compound COC1=CC(C)=C[C@@H](C)[C@@H](O)[C@@H](C)CC(C)=CC=C[C@H](OC)[C@H]([C@@H](C)[C@@H](O)[C@H](C)[C@@]2(O)C[C@@H](O)[C@H](C)[C@@H](C(C)C)O2)OC1=O , what Potency is on record?
## Result 0.0014 µM (active)

## Task For the compound COC(C)(C)CCCC(C)C/C=C/C(C)=C/C(=O)OC(C)C (stereo unspecified) , what Potency is on record?
## Result inactive

Others:
## Task For the compound O=[N+]([O-])c1ccc([As](=O)(O)O)cc1 , what Potency is on record?
## Result inactive

## Task For the compound c1cc2c(cc1[C@H]1OC[C@H]3[C@H]1CO[C@H]3c1ccc3c(c1)OCO3)OCO2 , what Potency is on record?
## Result inactive

## Task For the compound CCOC(=O)c1c(C(C#N)=CN)c2ccc(Cl)c(Cl)c2n1C , what Potency is on record?
## Result inactive

## Task For the compound CC(O)CN1CCN(CC(=O)[O-])CCN(CC(=O)[O-])CCN(CC(=O)[O-])CC1.[Gd+3] (stereo unspecified) , what Potency is on record?
## Result inactive

## Task For the compound C[C@]12COC(=O)C[C@@H]1CC[C@@H]1[C@H]2CC[C@@]2(C)[C@H]1CC[C@]2(C)O , what Potency is on record?
## Result inactive

## Task For the compound CC(=O)[O][Hg][c]1ccccc1 , what Potency is on record?
## Result 4.9 µM (active)

---

# measurement.description: qHTS for Inhibitors of the Functional Ribonucleoprotein Complex (vRNP) of Lassa (LASV) Arenavirus: Viability assay - alamar blue signal for LASV Primary Screen (AID 1347083); further: nearly all actives have a fitted effect of over 80% in size
# details: cell viability, alamar blue fluorescence (LASV minigenome counter-screen); series mostly up to 57.5 µM
Results filed as inconclusive are left out. The source made the active and inactive calls. Calls come from the whole dose curve; tested in HEK293 reporter line.
A correct response names exactly one class from T (active), F (inactive)

Solved cases (8 shown):
## Task For this molecule, state the assay outcome: Cc1cc(Nc2cc(N3CCN(C)CC3)nc(C=Cc3ccccc3)n2)n[nH]1
## Result T

## Task For this molecule, state the assay outcome: Cc1cnc(Nc2ccc(F)cc2Cl)nc1-c1c[nH]c(C(=O)N[C@H](CO)c2cccc(Cl)c2)c1
## Result T

## Task For this molecule, state the assay outcome: NC1CC1c1ccccc1 (centres undefined)
## Result F

## Task For this molecule, state the assay outcome: C[C@]1(CO)CN(c2cc(C(=O)Nc3ccc4c(c3)-c3c(c(C(N)=O)nn3-c3ccc(F)cc3)CC4)c(Cl)cn2)C[C@@]1(C)CO
## Result T

## Task For this molecule, state the assay outcome: O=C(O)CCCOc1ccc(Cl)cc1Cl
## Result F

## Task For this molecule, state the assay outcome: CC[C@H]1C=CC=CC[C@@H](C)[C@H](O)[C@@](C)(O)C(=O)[C@@H](C)[C@H](O)[C@@H](C)C(=O)[C@@H](C)[C@H](O)[C@@H](C)C=CC(=O)O[C@@H]2[C@@H](C)[C@H](CC1)O[C@]1(CC[C@H](C)[C@H](C[C@@H](C)O)O1)[C@H]2C
## Result T

## Task For this molecule, state the assay outcome: CCC(=O)N1CCN(c2ccc(-n3c(=O)ccc4cnc5ccc(-c6cnc7ccccc7c6)cc5c43)cc2C(F)(F)F)CC1
## Result T

## Task For this molecule, state the assay outcome: COc1cc2c(Oc3ccc(NC(=O)C4(C(=O)Nc5ccc(F)cc5)CC4)cc3F)ccnc2cc1OCCCN1CCOCC1
## Result T

Attention now shifts to the item below.
## Task For this molecule, state the assay outcome: O=C(NCCS(=O)(=O)c1ccc(C(F)(F)F)cn1)c1ccc(Cl)cc1
## Result F

---

# measured.target: Cytochrome P450 2D6 (Homo sapiens) (UniProt P10635)
# Sequence (P10635 whole entry, looked up): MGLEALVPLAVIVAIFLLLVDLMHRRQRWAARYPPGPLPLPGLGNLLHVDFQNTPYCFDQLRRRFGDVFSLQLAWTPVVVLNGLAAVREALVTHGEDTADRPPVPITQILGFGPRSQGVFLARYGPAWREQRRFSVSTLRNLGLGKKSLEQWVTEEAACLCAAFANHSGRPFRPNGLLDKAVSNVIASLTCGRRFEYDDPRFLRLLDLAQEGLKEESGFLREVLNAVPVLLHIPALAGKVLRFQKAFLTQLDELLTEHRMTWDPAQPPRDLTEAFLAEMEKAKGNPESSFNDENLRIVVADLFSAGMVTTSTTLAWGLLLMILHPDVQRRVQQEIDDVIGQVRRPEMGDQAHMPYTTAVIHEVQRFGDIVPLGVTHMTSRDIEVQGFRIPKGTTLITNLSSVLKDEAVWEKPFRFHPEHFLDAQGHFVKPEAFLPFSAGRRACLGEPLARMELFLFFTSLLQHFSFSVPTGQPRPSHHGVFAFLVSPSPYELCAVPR
# measurement.description: Cytochrome P450 family 2 subfamily D member 6 (CYP2D6) small molecule antagonists: luciferase biochemical (cell-free) qHTS assay (AID 1645840); further: nearly all actives have a fitted effect of over 55% in size
# details: P450-Glo CYP2D6 enzyme, luciferin luminescence, 1 h; series mostly up to 57.4 µM
Results filed as inconclusive are left out. The source made the active and inactive calls. Calls come from the whole dose curve; as a rule, active = well fitted inhibition curve with a large enough effect in the repeat runs; inconclusive = weak or mixed curves; inactive = flat fitted curve, though single readings scatter.
A correct response names exactly one class from active, inactive

## Task For this molecule, state the assay outcome: CCN1CCN(C(=O)Cc2ccc(Nc3ncc(F)c(Nc4ccc(C(=O)Nc5ccccc5Cl)cc4)n3)cc2)CC1
## Result inactive

## Task For this molecule, state the assay outcome: CCC1(CCC(C)C)C(=O)NC(=O)NC1=O
## Result inactive

## Task For this molecule, state the assay outcome: CSCC[C@@H](NC(=O)[C@@H](Cc1ccccc1)NC(=O)CNC(=O)CNC(=O)[C@@H](N)Cc1ccc(O)cc1)C(=O)O
## Result inactive

## Task For this molecule, state the assay outcome: Nc1ccc([N+](=O)[O-])cc1
## Result inactive

## Task For this molecule, state the assay outcome: CCCN(CCC)c1c([N+](=O)[O-])cc(S(N)(=O)=O)cc1[N+](=O)[O-]
## Result active

Others:
## Task For this molecule, state the assay outcome: COCC1(CO)C(=O)C2CCN1CC2 (stereo unspecified)
## Result inactive

## Task For this molecule, state the assay outcome: Nc1ccc(Sc2ccc(N)cc2)cc1
## Result active
